Experimental Readout: melting point

[[record]]
compound = "CC(C)c1nc(CO)n(CC2=CCC(=O)N=C2)c1Sc1cc(Cl)cc(Cl)c1"
result = "220 °C"

[[record]]
compound = "CCCCC(CC)COc1ccc2cc3cc(OCC(CC)CCCC)ccc3cc2c1 (stereo not given)"
result = "60 to 62 °C"

[[record]]
compound = "Cc1ccc(S(=O)(=O)N2CCN(S(=O)(=O)c3ccc(C)cc3)CC3=CC=C(CN(S(=O)(=O)c4ccc(C)cc4)CC2)S3)cc1"
result = "265 to 268 °C"

[[record]]
compound = "O=C(Oc1ccc(Cl)c(OCC2CC2(Cl)Cl)c1)N1CCSC1 (stereo not given)"
result = "74 to 79.5 °C"

[[record]]
compound = "Nc1nc(N2CCC2)c2ncn(C3CC(O)C(CO)C3)c2n1 (single isomer, unassigned; (+))"
result = "194 to 195 °C"

[[record]]
compound = "O=C(O)Cc1ccc(OCc2ccccc2)cc1[N+](=O)[O-]"
result = "145 to 152 °C"

[[record]]
compound = "CCOC(=O)C(C)=CNc1ccc(OCC)c(C)n1"
result = "118 to 122 °C"

[[record]]
compound = "Clc1ccc(C2NN=C(c3cccnc3)S2)cc1 (stereo not given)"
result = "108 to 110 °C"

[[record]]
compound = "CCOC(=O)C1=C(N)NC2=C(C(=O)CCC2)C1c1ccccc1Br (stereo not given)"
result = "245 °C"

[[record]]
compound = "COC(=O)c1ccc(OCC2COC(=O)N2c2ccc(Cl)cc2)cc1 (stereo not given)"
result = "135 to 136 °C"

[[record]]
compound = "CN(CCCCC(=O)O)c1ccc([N+](=O)[O-])cc1C=O"
result = "107 to 108 °C"

[[record]]
compound = "CCOc1cc(C2=NN(c3ccccc3)C(=O)[C@H]3CC=CC[C@@H]23)ccc1OC (relative stereo)"
result = "97 to 99 °C"

[[record]]
compound = "N#Cc1ccc(-c2ccc(OS(N)(=O)=O)cc2)cc1Cn1cncn1"
result = "179 to 180 °C"

[[record]]
compound = "COc1ccccc1-n1c(=O)[nH]c2c(C(N)=O)nc(NCCO)nc21"
result = "157 to 160 °C"

[[record]]
compound = "CC(=O)Nc1nc(CCc2ccc(NC(NC(=O)OC(C)(C)C)NC(=O)OC(C)(C)C)cc2)c(Cl)s1"
result = "220 to 221 °C"

[[record]]
compound = "O=C1OC2(CC(c3ccccc3C(F)(F)F)=NO2)c2ccccc21 (stereo not given)"
result = "149 to 150 °C"

[[record]]
compound = "COC(=O)c1ccc(CCc2cc3cc(C#N)ccc3o2)cc1"
result = "114 to 115 °C"

[[record]]
compound = "Cc1ccc2ccn3c(C(F)(F)F)nnc3c2c1"
result = "205 to 206 °C"

[[record]]
compound = "CC(C)NCC(O)c1ccc(OCc2ccccc2)c(C(N)=O)c1 (stereo not given)"
result = "135 to 138 °C"

[[record]]
compound = "CCN(c1cccc2cc(-c3ncc(COc4ccc(C(=O)OC)cc4)s3)[nH]c12)S(=O)(=O)c1cccs1"
result = "191 °C"

